# TARGET UNDER TEST: P-type sodium-transporting ATPase4 (Plasmodium falciparum (isolate 3D7))
# Sequence (A0A143ZZK9 whole entry): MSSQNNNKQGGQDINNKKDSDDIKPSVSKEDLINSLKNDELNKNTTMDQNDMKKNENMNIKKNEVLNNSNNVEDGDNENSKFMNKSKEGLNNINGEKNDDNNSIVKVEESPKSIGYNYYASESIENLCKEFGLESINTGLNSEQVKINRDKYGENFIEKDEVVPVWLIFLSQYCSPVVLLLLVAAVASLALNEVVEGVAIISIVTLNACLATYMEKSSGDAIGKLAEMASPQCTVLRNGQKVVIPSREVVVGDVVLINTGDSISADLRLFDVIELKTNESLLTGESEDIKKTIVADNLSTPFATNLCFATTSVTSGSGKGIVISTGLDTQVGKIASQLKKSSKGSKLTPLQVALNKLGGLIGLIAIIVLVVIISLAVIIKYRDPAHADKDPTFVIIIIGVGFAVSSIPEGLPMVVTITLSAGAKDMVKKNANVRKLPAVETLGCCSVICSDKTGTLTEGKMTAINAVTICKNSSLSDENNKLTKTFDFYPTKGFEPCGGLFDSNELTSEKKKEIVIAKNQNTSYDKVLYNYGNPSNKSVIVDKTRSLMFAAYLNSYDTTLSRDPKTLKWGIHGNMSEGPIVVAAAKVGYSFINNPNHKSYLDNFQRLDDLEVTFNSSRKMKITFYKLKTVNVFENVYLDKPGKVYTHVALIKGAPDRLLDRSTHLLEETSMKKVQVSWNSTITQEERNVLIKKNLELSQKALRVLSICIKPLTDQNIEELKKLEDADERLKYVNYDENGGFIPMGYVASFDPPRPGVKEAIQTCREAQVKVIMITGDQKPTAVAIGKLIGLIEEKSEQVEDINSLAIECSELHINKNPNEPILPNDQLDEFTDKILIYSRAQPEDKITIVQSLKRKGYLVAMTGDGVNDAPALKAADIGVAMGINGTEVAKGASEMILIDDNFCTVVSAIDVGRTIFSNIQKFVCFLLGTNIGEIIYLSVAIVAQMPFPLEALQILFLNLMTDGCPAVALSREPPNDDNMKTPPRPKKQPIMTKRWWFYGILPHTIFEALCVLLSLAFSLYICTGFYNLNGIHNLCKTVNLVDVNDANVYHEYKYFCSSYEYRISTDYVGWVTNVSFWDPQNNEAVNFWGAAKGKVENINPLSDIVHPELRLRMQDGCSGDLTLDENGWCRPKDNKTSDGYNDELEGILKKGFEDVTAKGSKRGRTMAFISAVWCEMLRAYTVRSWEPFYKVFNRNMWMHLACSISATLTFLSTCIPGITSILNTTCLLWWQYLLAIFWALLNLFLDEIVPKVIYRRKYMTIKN
# MEASUREMENT PROTOCOL: Inhibition of Plasmodium falciparum 3D7 ATP4 assessed as increase in Na+ concentration in parasite cytosol measured for 60 mins
# Type: subcellular
IC50 values, listed per item

# STRUCTURE AS SMILES, IC50
measured = [
    ("CCc1nnc(-c2ccc3ccn(CC(=O)Nc4cc(OC)c(OC)c(OC)c4)c3c2)o1", "~400 nM"),
]

From here, focus on the item given below.
Query: What value of IC50 has been reported for the following compound? `Cc1nnc(-c2ccc3ccn(CC(=O)Nc4ccccc4Cl)c3c2)o1`
Result: ~400 nM
